REPORTED METRIC: melting point

Looking up "O=C(NCc1ccc(Cl)cc1)c1cn2c3c(cc(CN4CCOCC4)cc3c1=O)OC1(CCNCC1)C2" , I see its melting point listed as 246 to 250 °C (dec.)

Looking up COCOCc1ccc(C2Cn3cc(C(=O)NCc4ccc(Cl)cc4)c(=O)c4cc(CN5CCOCC5)cc(c43)O2)cc1 (stereo not shown) , I see its melting point listed as 236 to 239 °C

====

List of pIC50 values.
# SYSTEM UNDER TEST: CMV polymerase (Human cytomegalovirus, UniProt P08546)
# Construct: made in house; host or cells: recombinant baculovirus-infected SF-9 cells
# Sequence (P08546 whole entry): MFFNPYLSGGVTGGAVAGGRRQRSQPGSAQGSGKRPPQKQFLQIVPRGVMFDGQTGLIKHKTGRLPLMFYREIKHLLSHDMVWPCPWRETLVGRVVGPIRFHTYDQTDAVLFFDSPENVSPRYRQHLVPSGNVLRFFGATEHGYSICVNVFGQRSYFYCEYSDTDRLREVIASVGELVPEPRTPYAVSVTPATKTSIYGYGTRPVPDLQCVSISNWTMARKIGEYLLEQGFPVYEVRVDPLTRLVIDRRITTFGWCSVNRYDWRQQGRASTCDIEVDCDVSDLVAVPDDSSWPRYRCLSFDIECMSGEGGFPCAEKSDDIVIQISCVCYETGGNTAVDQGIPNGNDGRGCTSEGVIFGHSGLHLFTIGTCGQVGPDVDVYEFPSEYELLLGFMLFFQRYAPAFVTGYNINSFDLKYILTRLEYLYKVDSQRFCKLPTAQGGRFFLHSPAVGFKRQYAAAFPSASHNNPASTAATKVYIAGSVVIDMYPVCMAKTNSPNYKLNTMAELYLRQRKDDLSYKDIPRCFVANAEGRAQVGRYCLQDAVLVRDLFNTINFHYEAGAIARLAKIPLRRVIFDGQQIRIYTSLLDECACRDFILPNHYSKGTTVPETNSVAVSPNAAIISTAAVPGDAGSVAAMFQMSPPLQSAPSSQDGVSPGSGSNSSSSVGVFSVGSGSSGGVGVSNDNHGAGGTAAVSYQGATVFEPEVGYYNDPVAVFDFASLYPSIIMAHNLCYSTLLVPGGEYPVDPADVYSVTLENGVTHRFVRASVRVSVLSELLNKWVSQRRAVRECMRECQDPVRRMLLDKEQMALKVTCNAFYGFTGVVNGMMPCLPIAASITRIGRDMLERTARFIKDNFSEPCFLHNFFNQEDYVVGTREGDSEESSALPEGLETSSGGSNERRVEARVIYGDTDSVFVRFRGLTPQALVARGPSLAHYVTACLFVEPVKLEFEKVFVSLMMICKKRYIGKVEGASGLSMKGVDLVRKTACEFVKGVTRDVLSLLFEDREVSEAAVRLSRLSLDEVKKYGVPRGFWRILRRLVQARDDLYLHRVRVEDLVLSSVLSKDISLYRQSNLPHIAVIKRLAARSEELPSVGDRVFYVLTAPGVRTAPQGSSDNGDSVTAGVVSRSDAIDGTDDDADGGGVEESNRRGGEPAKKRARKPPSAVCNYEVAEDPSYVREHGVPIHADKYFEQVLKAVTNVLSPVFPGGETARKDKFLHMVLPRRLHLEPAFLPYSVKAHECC
# EXPERIMENT: HCMV polymerase assay, scintillation proximity assay (SPA), modified version
# Type: biochemical
# RUN PARAMETERS: modified HCMV polymerase SPA assay: compounds diluted in 100% DMSO, 4.5 mM DTT in polymerase buffer, different lot of CMV polymerase; read-out: CMV polymerase IC50
Structures can show the parent of a compound that is named as a salt.
Note: pIC50 values are expressed as the negative base-10 logarithm of concentration in M.

Worked set:
O=C(NCc1ccc(Cl)cc1)c1cn2c3c(cc(CN4CCOCC4)cc3c1=O)OC(c1ccncc1)C2 (stereo not shown) | 6.21
COCOCC1(COCOC)Cn2cc(C(=O)NCc3ccc(Cl)cc3)c(=O)c3cc(CN4CCOCC4)cc(c32)O1 | 6.12

Looking up O=C(NCc1ccc(Cl)cc1)c1cn2c3c(cc(CN4CCOCC4)cc3c1=O)OC(CO)C2 (single isomer, unassigned) [Example 21] , I see its pIC50 listed as 6.17

Looking up O=C(NCc1ccc(Cl)cc1)c1cn2c3c(cc(CN4CCOCC4)cc3c1=O)OC(CSCC(O)CO)C2 (stereo not shown) , I see its pIC50 listed as 6.24

Looking up O=C(NCc1ccc(Cl)cc1)c1cn2c3c(cc(CN4CCOCC4)cc3c1=O)OC(c1cccc3c1OCO3)C2 (stereo not shown) , I see its pIC50 listed as 6.70

Looking up "O=C(NCc1ccc(Cl)cc1)c1cn2c3c(cc(CN4CCOCC4)cc3c1=O)OC1(CCOCC1)C2" , I see its pIC50 listed as 6.28

Looking up O=C(NCc1ccc(Cl)cc1)c1cn2c3c(cc(CN4CCOCC4)cc3c1=O)OC(CNCc1cccnc1)C2 (stereo not shown) [Example 11] , I see its pIC50 listed as 6.27

Looking up O=C(NCc1ccc(Cl)cc1)c1cn2c3c(cc(CN4CCOCC4)cc3c1=O)OC(Cn1ccnc1)C2 (stereo not shown) , I see its pIC50 listed as 6.23

Looking up O=C(NCc1ccc(Cl)cc1)c1cn2c3c(cc(CN4CCOCC4)cc3c1=O)OC(c1cccs1)C2 (stereo not shown) , I see its pIC50 listed as 6.34

Looking up CN(CCS(=O)(=O)O)C(=O)CCCCCCC(=O)OCC1Cn2cc(C(=O)NCc3ccc(Cl)cc3)c(=O)c3cc(CN4CCOCC4)cc(c32)O1 (stereo not shown) [Example 25, sodium salt] , I see its pIC50 listed as 5.89
